Ref: patent US20110190162A1

Experiment: Metabolism-induced toxicity assay, cell viability
Assay type: cell-based
Conditions: human, HepG2 cells infected with Ad-3A4 (expressing CYP3A4); HepG2 transfected with Ad-3A4 at 40 MOI, 24 h exposure; read-out: calculated IC50 (cell viability)
MEASURE: IC50 at 24 h (mM)
Record the value in mM, omitting the unit from your answer.

Fill blank: measured IC50 at 24 h of the molecule `CC(=O)Nc1ccc(O)cc1` is ____.
7.3
